experimental readout: melting point (°C)

molecule | number
CN(C)CC[C@@](O)(c1cccc(F)c1)C(c1ccccc1)c1ccc2cc(Br)ccc2n1 (some centres unmarked) [Compound 6] | 134
CN(C)CC[C@](O)(c1cc(F)cc(F)c1)[C@@H](c1ccccc1)c1cc(Br)cc2c(-c3ccccc3)cc(Cl)nc12 [Compound 11] | 220
CN(C)CC[C@](O)(c1cccc(F)c1)C(Cc1ccccc1)c1ccc2cc(Br)ccc2n1 (some centres unmarked) [Compound 1] | 136
CN(C)CC[C@](O)(c1cccc2ccccc12)C(Cc1ccccc1)c1ccc2cc(Br)ccc2n1 (some centres unmarked) [Compound 2] | 143
CN(C)CC[C@@](O)(c1cccc2ccccc12)C(Cc1ccccc1)c1ccc2cc(Br)ccc2n1 (some centres unmarked) [Compound 3] | 69
